Data provenance: patent US11497212B2

System: Zea mays
protocol.text: Crop compatibility post-emergence (greenhouse pot trial)
Type: in vivo
experimental.setup: application rate 80 g/ha

compound	Zea mays (Efficacy in %)
CC(Sc1cc(-n2c(=O)cc(C(F)(F)F)n(C)c2=O)c(F)cc1Cl)C(=O)NCC1CS(=O)(=O)CCO1 (centres unmarked)	0%
CSCCNC(=O)C(C)Sc1cc(-n2c(=O)cc(C(F)(F)F)n(C)c2=O)c(F)cc1Cl (centres unmarked)	20%
Cn1c(C(F)(F)F)cc(=O)n(-c2cc(SCC(C)(C)C(=O)NCC3CCCO3)c(Cl)cc2F)c1=O (centres unmarked)	20%
CC(Sc1cc(-n2c(=O)cc(C(F)(F)F)n(C)c2=O)c(F)cc1Cl)C(=O)NC1(C#N)CCSC1 (centres unmarked)	0%
CC(Sc1cc(-n2c(=O)cc(C(F)(F)F)n(C)c2=O)c(F)cc1Cl)C(=O)NCC1(C)CCCO1 (centres unmarked)	20%
Cn1c(C(F)(F)F)cc(=O)n(-c2cc(SCC(=O)NCC3CCCO3)c(Cl)cc2F)c1=O (centres unmarked)	20%
CC(Sc1cc(-n2c(=O)cc(C(F)(F)F)n(C)c2=O)c(F)cc1Cl)C(=O)OCC1CCCO1 (centres unmarked)	20%
C=CCN(C(=O)C(C)Sc1cc(-n2c(=O)cc(C(F)(F)F)n(C)c2=O)c(F)cc1Cl)C(C)COC (centres unmarked)	10%

###

Setaria viridis (Efficacy in %) values by entry
Tested on: Setaria viridis
protocol.text: Herbicidal action post-emergence (greenhouse pot trial)
Format: in vivo
experimental.setup: application rate 20 g/ha, scored visually after about 3 weeks vs untreated controls

compound	subject.of.test	Setaria viridis (Efficacy in %)
CC(Sc1cc(-n2c(=O)cc(C(F)(F)F)n(C)c2=O)c(F)cc1Cl)C(=O)NC1CCCOC1 (stereo not shown)	Setaria viridis	100
COCCNC(=O)C(C)Sc1cc(-n2c(=O)cc(C(F)(F)F)n(C)c2=O)c(F)cc1Cl (stereo not shown)	Setaria viridis	100
CC(Sc1cc(-n2c(=O)cc(C(F)(F)F)n(C)c2=O)c(F)cc1Cl)C(=O)OC1CCSC1 (stereo not shown)	Setaria viridis	100
CC(C)C(Sc1cc(-n2c(=O)cc(C(F)(F)F)n(C)c2=O)c(F)cc1Cl)C(=O)OCC1CCCO1 (stereo not shown)	Setaria viridis	100
CC(Sc1cc(-n2c(=O)cc(C(F)(F)F)n(C)c2=O)c(F)cc1Cl)C(=O)NCC1COC(C)(C)O1 (stereo not shown)	Setaria viridis	90
CCC(Sc1cc(-n2c(=O)cc(C(F)(F)F)n(C)c2=O)c(F)cc1Cl)C(=O)OCC1CCCCO1 (stereo not shown)	Setaria viridis	100
CC(Sc1cc(-n2c(=O)cc(C(F)(F)F)n(C)c2=O)c(F)cc1Cl)C(=O)OCC1CCSC1 (stereo not shown)	Setaria viridis	80
CCC(Sc1cc(-n2c(=O)cc(C(F)(F)F)n(C)c2=O)c(F)cc1Cl)C(=O)OCC1CCCS1 (stereo not shown)	Setaria viridis	100
CCC(C)C(Sc1cc(-n2c(=O)cc(C(F)(F)F)n(C)c2=O)c(F)cc1Cl)C(=O)OCC1CCOC1 (stereo not shown)	Setaria viridis	80
CC(Sc1cc(-n2c(=O)cc(C(F)(F)F)n(C)c2=O)c(F)cc1Cl)C(=O)OC1CCCOC1 (stereo not shown)	Setaria viridis	100
CC(Sc1cc(-n2c(=O)cc(C(F)(F)F)n(C)c2=O)c(F)cc1Cl)C(=O)NCC1CCCCO1 (stereo not shown)	Setaria viridis	100
CC(Sc1cc(-n2c(=O)cc(C(F)(F)F)n(C)c2=O)c(F)cc1Cl)C(=O)OC1COC1 (stereo not shown)	Setaria viridis	100
CC(Sc1cc(-n2c(=O)cc(C(F)(F)F)n(C)c2=O)c(F)cc1Cl)C(=O)OCCCOCc1ccccc1 (stereo not shown)	Setaria viridis	100
CCC(Sc1cc(-n2c(=O)c(C)c(C(F)(F)F)n(C)c2=O)c(F)cc1Cl)C(=O)OCC1CCCCO1 (stereo not shown)	Setaria viridis	80
CCC(Sc1cc(-n2c(=O)cc(C(F)(F)F)n(C)c2=O)c(F)cc1Cl)C(=O)OCC1COC(C)C1 (stereo not shown)	Setaria viridis	90
CCC(Sc1cc(-n2c(=O)cc(C(F)(F)F)n(C)c2=O)c(F)cc1Cl)C(=O)OCC1CCCO1 (stereo not shown)	Setaria viridis	90
Cn1c(C(F)(F)F)cc(=O)n(-c2cc(SCC(C)(C)C(=O)OCC3CCCOC3)c(Cl)cc2F)c1=O (stereo not shown)	Setaria viridis	100
Cc1c(C(F)(F)F)n(C)c(=O)n(-c2cc(SC(CC(C)C)C(=O)OCC3CCOC3)c(Cl)cc2F)c1=O (stereo not shown)	Setaria viridis	100
CC(C)=C(Sc1cc(-n2c(=O)cc(C(F)(F)F)n(C)c2=O)c(F)cc1Cl)C(=O)OCC1CCOC1 (stereo not shown)	Setaria viridis	100
Cc1c(C(F)(F)F)n(C)c(=O)n(-c2cc(SCC(C)(C)C(=O)OCC3CCCO3)c(Cl)cc2F)c1=O (stereo not shown)	Setaria viridis	100
CC(Sc1cc(-n2c(=O)cc(C(F)(F)F)n(C)c2=O)c(F)cc1Cl)C(=O)OCCOC(F)(F)F (stereo not shown)	Setaria viridis	100
CCC(Sc1cc(-n2c(=O)cc(C(F)(F)F)n(C)c2=O)c(F)cc1Cl)C(=O)OCC1CCCOC1 (stereo not shown)	Setaria viridis	100
CC(Sc1cc(-n2c(=O)cc(C(F)(F)F)n(C)c2=O)c(F)cc1Cl)C(=O)OCC1CCCOC1 (stereo not shown)	Setaria viridis	100
CC(Sc1cc(-n2c(=O)cc(C(F)(F)F)n(C)c2=O)c(F)cc1Cl)C(=O)OCCOCc1ccccc1 (stereo not shown)	Setaria viridis	100
CCC(C)C(Sc1cc(-n2c(=O)cc(C(F)(F)F)n(C)c2=O)c(F)cc1Cl)C(=O)OCC1CCCCO1 (stereo not shown)	Setaria viridis	90
COC(C)COC(=O)C(C)Sc1cc(-n2c(=O)cc(C(F)(F)F)n(C)c2=O)c(F)cc1Cl (stereo not shown)	Setaria viridis	100
CC(C)C(Sc1cc(-n2c(=O)cc(C(F)(F)F)n(C)c2=O)c(F)cc1Cl)C(=O)NCC1CCCO1 (stereo not shown)	Setaria viridis	100
Cc1c(C(F)(F)F)n(C)c(=O)n(-c2cc(SCC(C)(C)C(=O)NCC3CCCCO3)c(Cl)cc2F)c1=O (stereo not shown)	Setaria viridis	100
CC(C)CC(Sc1cc(-n2c(=O)cc(C(F)(F)F)n(C)c2=O)c(F)cc1Cl)C(=O)NCC1CCCO1 (stereo not shown)	Setaria viridis	100
CSCCNC(=O)C(C)Sc1cc(-n2c(=O)cc(C(F)(F)F)n(C)c2=O)c(F)cc1Cl (stereo not shown)	Setaria viridis	100
CC(C)C(Sc1cc(-n2c(=O)cc(C(F)(F)F)n(C)c2=O)c(F)cc1Cl)C(=O)OCC1CCOC1 (stereo not shown)	Setaria viridis	90

###

Test system: Echinochloa crus-galli
protocol.text: Herbicidal action post-emergence (greenhouse pot trial)
Format: in vivo
experimental.setup: application rate 20 g/ha, scored visually after about 3 weeks vs untreated controls
measured.quantity: Echinochloa crus-galli (Efficacy in %)

compound	measured.quantity	quantitative.readout
Cn1c(C(F)(F)F)cc(=O)n(-c2cc(SCC(C)(C)C(=O)OCC3CCCS3)c(Cl)cc2F)c1=O (stereo not shown)	Echinochloa crus-galli (Efficacy in %)	90
Cn1c(C(F)(F)F)cc(=O)n(-c2cc(SCC(C)(C)C(=O)OCC3CCCCO3)c(Cl)cc2F)c1=O (stereo not shown)	Echinochloa crus-galli (Efficacy in %)	100
CCC(Sc1cc(-n2c(=O)c(C)c(C(F)(F)F)n(C)c2=O)c(F)cc1Cl)C(=O)OCC1CCCO1 (stereo not shown)	Echinochloa crus-galli (Efficacy in %)	100
CC(Sc1cc(-n2c(=O)cc(C(F)(F)F)n(C)c2=O)c(F)cc1Cl)C(=O)OCCCOCc1ccccc1 (stereo not shown)	Echinochloa crus-galli (Efficacy in %)	100
CC(Sc1cc(-n2c(=O)cc(C(F)(F)F)n(C)c2=O)c(F)cc1Cl)C(=O)OCC1CCCOC1 (stereo not shown)	Echinochloa crus-galli (Efficacy in %)	100
CCC(C)C(Sc1cc(-n2c(=O)cc(C(F)(F)F)n(C)c2=O)c(F)cc1Cl)C(=O)NCC1CCCO1 (stereo not shown)	Echinochloa crus-galli (Efficacy in %)	80
CCC(C)C(Sc1cc(-n2c(=O)cc(C(F)(F)F)n(C)c2=O)c(F)cc1Cl)C(=O)OCC1CCCCO1 (stereo not shown)	Echinochloa crus-galli (Efficacy in %)	80

###

System: Lolium rigidum
protocol.text: Herbicidal action pre-emergence (greenhouse pot trial)
Type: in vivo
experimental.setup: application rate 320 g/ha

molecule	units.label	Lolium rigidum (Efficacy in %)
CON(C(=O)C(C)Sc1cc(-n2c(=O)cc(C(F)(F)F)n(C)c2=O)c(F)cc1Cl)C1CCOC1 (stereo not drawn)	%	100
CC(Sc1cc(-n2c(=O)cc(C(F)(F)F)n(C)c2=O)c(F)cc1Cl)C(=O)NCC1(C)CCCO1 (stereo not drawn)	%	100
CCC(Sc1cc(-n2c(=O)cc(C(F)(F)F)n(C)c2=O)c(F)cc1Cl)C(=O)OCC1CCOC1 (stereo not drawn)	%	90
